# target: T1, human IL-36R on cells (human, UniProt Q9HB29 20-575)
# T1 sequence (looked up): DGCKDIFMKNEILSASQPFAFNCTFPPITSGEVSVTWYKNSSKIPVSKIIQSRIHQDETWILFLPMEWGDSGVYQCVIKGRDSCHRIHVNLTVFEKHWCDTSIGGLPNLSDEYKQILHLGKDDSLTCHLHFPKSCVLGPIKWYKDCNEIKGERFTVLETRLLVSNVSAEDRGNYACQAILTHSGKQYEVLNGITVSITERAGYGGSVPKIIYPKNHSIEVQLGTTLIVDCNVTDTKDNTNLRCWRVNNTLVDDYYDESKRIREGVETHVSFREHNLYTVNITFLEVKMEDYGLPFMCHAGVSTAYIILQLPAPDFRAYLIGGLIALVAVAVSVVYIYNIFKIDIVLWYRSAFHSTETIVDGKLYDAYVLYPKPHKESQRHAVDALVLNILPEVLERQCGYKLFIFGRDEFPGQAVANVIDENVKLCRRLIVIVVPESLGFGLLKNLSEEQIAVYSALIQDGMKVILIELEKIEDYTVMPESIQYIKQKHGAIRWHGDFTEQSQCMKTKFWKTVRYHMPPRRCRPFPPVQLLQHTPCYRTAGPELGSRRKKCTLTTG
# assay_comment: cell-based or functional assay
This listing pairs binders with measured IC90, pNFκB, NCI/ADR-RES cells, trun-IL-36a.
Numeric only. Scale: nM

Consider the worked cases shown below.
antibody 73F6 (antibody, V domains shown, Mouse monoclonal from hybridoma; also called 73F6F8; Mouse 73F6) VH: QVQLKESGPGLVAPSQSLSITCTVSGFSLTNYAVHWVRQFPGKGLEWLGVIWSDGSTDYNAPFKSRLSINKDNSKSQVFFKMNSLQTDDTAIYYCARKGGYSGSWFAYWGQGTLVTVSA VL: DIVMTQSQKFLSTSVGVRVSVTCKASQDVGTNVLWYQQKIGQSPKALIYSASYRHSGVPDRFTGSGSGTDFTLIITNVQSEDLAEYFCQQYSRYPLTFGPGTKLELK	2.8
antibody 78C8 (antibody, V domains shown, Mouse monoclonal from hybridoma; also called 78C8D1; Mouse 78C8) VH: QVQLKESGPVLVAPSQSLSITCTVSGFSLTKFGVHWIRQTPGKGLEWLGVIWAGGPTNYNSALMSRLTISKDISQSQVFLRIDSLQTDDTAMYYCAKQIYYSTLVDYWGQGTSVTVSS VL: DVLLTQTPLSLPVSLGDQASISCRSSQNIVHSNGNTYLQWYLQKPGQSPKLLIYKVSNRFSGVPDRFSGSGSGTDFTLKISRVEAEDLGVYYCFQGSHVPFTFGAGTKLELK	5.8

Would you kindly look at the next entry?
// query Query (binder): antibody 73C5 (antibody, V domains shown, Mouse monoclonal from hybridoma; also called 73C5C10; Mouse 73C5) VH: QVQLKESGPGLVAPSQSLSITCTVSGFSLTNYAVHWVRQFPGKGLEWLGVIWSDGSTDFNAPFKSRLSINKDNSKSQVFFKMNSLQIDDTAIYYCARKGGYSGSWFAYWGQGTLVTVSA VL: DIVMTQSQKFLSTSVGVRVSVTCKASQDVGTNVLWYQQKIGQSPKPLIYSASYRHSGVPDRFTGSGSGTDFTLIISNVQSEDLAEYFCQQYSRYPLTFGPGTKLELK ; field requested: IC90, pNFκB, NCI/ADR-RES cells, trun-IL-36a
// result 3.4
